- Test system: NHEM-hTERT
- assay: cell viability relative to DMSO control (fraction of DMSO control); higher = less cytotoxic, active = 0.5 or less
- measurementContext: 1 µM; 120 h
Labelling: cell viability reported below 0.9 becomes rule met; at or above becomes rule not met.

Asked: In plain terms, does `CO[C@H]1C[C@@H]2CC[C@@H](C)[C@@](O)(O2)C(=O)C(=O)N2CCCC[C@H]2C(=O)O[C@H]([C@H](C)C[C@@H]2CC[C@@H](OCCO)[C@H](OC)C2)CC(=O)[C@H](C)/C=C(\C)[C@@H](O)[C@@H](OC)C(=O)[C@H](C)C[C@H](C)/C=C/C=C/C=C/1C` come in under 0.9 for cell viability?
Given back: rule not met

Asked: In plain terms, does `Nc1nc2[nH]nnc2c(=O)[nH]1` come in under 0.9 for cell viability?
Given back: rule not met

Asked: In plain terms, does `COc1ccc(C(Cl)=C(c2ccc(OC)cc2)c2ccc(OC)cc2)cc1` come in under 0.9 for cell viability?
Given back: rule met

Asked: In plain terms, does `CO[C@H]1C[C@@H]2CC[C@@H](C)[C@@](O)(O2)C(=O)C(=O)N2CCCC[C@H]2C(=O)O[C@H]([C@H](C)C[C@@H]2CC[C@@H](OC(=O)C(C)(CO)CO)[C@H](OC)C2)CC(=O)[C@H](C)/C=C(\C)[C@@H](O)[C@@H](OC)C(=O)[C@H](C)C[C@H](C)/C=C/C=C/C=C/1C` come in under 0.9 for cell viability?
Given back: rule met

Asked: In plain terms, does `O=NN(CCCl)C(=O)NC1CCCCC1` come in under 0.9 for cell viability?
Given back: rule not met

Asked: In plain terms, does O=C([O-])CCCc1ccccc1.[Na+] [Sodium Phenylbutyrate] come in under 0.9 for cell viability?
Given back: rule not met

###

- System: Mel-DCC-11-R
- assay: cell viability relative to DMSO control (fraction of DMSO control); higher = less cytotoxic, active = 0.8 or less
- measurementContext: 1 µM; 120 h; vemurafenib co-treatment 8 µM
Assign cell viability to each entry below.
The answer should be written as a number, with no unit following it.

Asked: Given CCc1c2c(nc3ccc(OC(=O)N4CCC(N5CCCCC5)CC4)cc13)-c1cc3c(c(=O)n1C2)COC(=O)[C@]3(O)CC [Irinotecan] , respond with its cell viability.
Given back: 0.694

Asked: Given CS(=O)(=O)O.Cc1ccc(NC(=O)c2ccc(CN3CCN(C)CC3)cc2)cc1Nc1nccc(-c2cccnc2)n1 [Imatinib Mesylate] , respond with its cell viability.
Given back: 1.1

Asked: Given Cc1c(C(=O)Nc2ccc(N3C[C@@H](C)O[C@@H](C)C3)nc2)cccc1-c1ccc(OC(F)(F)F)cc1 [Sonidegib] , respond with its cell viability.
Given back: 1.2

Asked: Given COc1cc2nccc(Oc3ccc(NC(=O)NC4CC4)c(Cl)c3)c2cc1C(N)=O [Lenvatinib] , respond with its cell viability.
Given back: 1.17

Asked: Given N#Cc1ccnc(N2C(=O)CC[C@H]2C(=O)N(c2cncc(F)c2)[C@H](C(=O)NC2CC(F)(F)C2)c2ccccc2Cl)c1 [Ivosidenib] , respond with its cell viability.
Given back: 1.06

Asked: Given Clc1ccc(C(c2ccccc2Cl)C(Cl)Cl)cc1 (stereo not given) [Mitotan] , respond with its cell viability.
Given back: 0.82

Asked: Given O=C(O)CCc1nc2ccccc2[nH]1 [Procodazole] , respond with its cell viability.
Given back: 1

Asked: Given CN(C)c1nc(N(C)C)nc(N(C)C)n1 [Altretamine] , respond with its cell viability.
Given back: 0.92

Asked: Given `CC(C)(CO)c1cc2cc(NC(=O)C3(c4ccc5c(c4)OC(F)(F)O5)CC3)c(F)cc2n1C[C@@H](O)CO` , respond with its cell viability.
Given back: 1.07

Asked: Given O=C(CCCCCCC(=O)Nc1ccccc1)NO [Vorinostat] , respond with its cell viability.
Given back: 1.04

###

Assign cell viability to each entry below.
- System: NHEM-hTERT
- assay: cell viability relative to DMSO control (fraction of DMSO control); higher = less cytotoxic, active = 0.5 or less
- measurementContext: 1 µM; 120 h

Asked: Given C[C@H]1O[C@@H](n2cc(F)c(=O)[nH]c2=O)[C@H](O)[C@@H]1O [Doxifluridine] , respond with its cell viability.
Given back: 0.863 (inactive)

Asked: Given C=CC(=O)Nc1cc(Nc2nccc(-c3cn(C)c4ccccc34)n2)c(OC)cc1N(C)CCN(C)C.CS(=O)(=O)O [Osimertinib mesylate] , respond with its cell viability.
Given back: 1.14 (inactive)

Asked: Given COc1cc2nccc(Oc3ccc(NC(=O)Nc4cc(C)on4)c(Cl)c3)c2cc1OC [Tivozanib] , respond with its cell viability.
Given back: 1.09 (inactive)

Asked: Given Nc1nc(F)nc2c1ncn2[C@@H]1O[C@H](CO)[C@@H](O)[C@@H]1O [Fludarabine] , respond with its cell viability.
Given back: 0.934 (inactive)

###

- Test system: Mel-DCC-11-R
- assay: cell viability relative to DMSO control (fraction of DMSO control); higher = less cytotoxic, active = 0.8 or less
- measurementContext: 1 µM; 120 h; vemurafenib co-treatment 0 µM
Assign cell viability to each entry below.
The answer should be written as a number, with no unit following it.

Asked: Given `O=C(CCCCCCNC(=O)c1cnc(N(c2ccccc2)c2ccccc2)nc1)NO` , respond with its cell viability.
Given back: 0.681

Asked: Given CN(C)C(=O)COC(=O)Cc1ccc(OC(=O)c2ccc(N=C(N)N)cc2)cc1.CS(=O)(=O)O [Camostat mesilate] , respond with its cell viability.
Given back: 1.1

Asked: Given O=C1CCC(N2C(=O)c3ccccc3C2=O)C(=O)N1 (stereo not given) [Thalidomide] , respond with its cell viability.
Given back: 0.897

Asked: Given `Nc1nc(=S)c2[nH]cnc2[nH]1` , respond with its cell viability.
Given back: 1.31

Asked: Given Clc1ccc(C(c2ccccc2Cl)C(Cl)Cl)cc1 (stereo not given) , respond with its cell viability.
Given back: 1

###

Assign cell viability to each entry below.
- System: NHEM-hTERT
- assay: cell viability relative to DMSO control (fraction of DMSO control); higher = less cytotoxic, active = 0.5 or less
- measurementContext: 1 µM; 120 h

Asked: Given `CCc1c2c(nc3ccc(OC(=O)N4CCC(N5CCCCC5)CC4)cc13)-c1cc3c(c(=O)n1C2)COC(=O)[C@]3(O)CC` , respond with its cell viability.
Given back: 0.894 (inactive)

Asked: Given CNC(=O)c1ccc(N2C(=S)N(c3cnc(C#N)c(C(F)(F)F)c3)C(=O)C23CCC3)cc1F [Apalutamide] , respond with its cell viability.
Given back: 1.01 (inactive)

Asked: Given `CCN(CC)C(=S)SSC(=S)N(CC)CC` , respond with its cell viability.
Given back: 1.05 (inactive)

Asked: Given Clc1ccc(C(c2ccccc2Cl)C(Cl)Cl)cc1 (stereo not given) , respond with its cell viability.
Given back: 0.958 (inactive)

Asked: Given `Cc1ccc(Nc2nccc(N(C)c3ccc4c(C)n(C)nc4c3)n2)cc1S(N)(=O)=O` , respond with its cell viability.
Given back: 0.893 (inactive)

###

Assign cell viability to each entry below.
- System: Mel-DCC-11-R
- assay: cell viability relative to DMSO control (fraction of DMSO control); higher = less cytotoxic, active = 0.8 or less
- measurementContext: 1 µM; 120 h; vemurafenib co-treatment 0 µM
The answer should be written as a number, with no unit following it.

Asked: Given `C[C@]12CC[C@H](O)CC1=CC[C@@H]1[C@@H]2CC[C@]2(C)C(c3cccnc3)=CC[C@@H]12` , respond with its cell viability.
Given back: 1.07

Asked: Given `CCCS(=O)(=O)Nc1ccc(F)c(C(=O)c2c[nH]c3ncc(-c4ccc(Cl)cc4)cc23)c1F` , respond with its cell viability.
Given back: 0.991

Asked: Given CC=Cc1ccc(OC)cc1 (stereo in doubt) [cis-Anethol] , respond with its cell viability.
Given back: 1.26

Asked: Given C[C@@H](CN1CC(=O)NC(=O)C1)N1CC(=O)NC(=O)C1.Cl [Dexrazoxane HCl] , respond with its cell viability.
Given back: 1.09

Asked: Given `CCCCCCCCCCCCCCCCOP(=O)([O-])OCC[N+](C)(C)C` , respond with its cell viability.
Given back: 0.843

Asked: Given CN(Cc1cnc2nc(N)nc(N)c2n1)c1ccc(C(=O)N[C@@H](CCC(=O)O)C(=O)O)cc1 [Methotrexate] , respond with its cell viability.
Given back: 0.993

Asked: Given Cl.N=C1CCCN1Cc1[nH]c(=O)[nH]c(=O)c1Cl [Tipiracil hydrochloride] , respond with its cell viability.
Given back: 0.816

Asked: Given `CCCCCCNC(=O)n1cc(F)c(=O)[nH]c1=O` , respond with its cell viability.
Given back: 1.12

###

Assign cell viability to each entry below.
- System: Mel-DCC-11
- assay: cell viability relative to DMSO control (fraction of DMSO control); higher = less cytotoxic, active = 0.5 or less
- measurementContext: 1 µM; 120 h
The answer should be written as a number, with no unit following it.

Asked: Given CC(C)CN(C[C@@H](O)[C@H](Cc1ccccc1)NC(=O)O[C@H]1CCOC1)S(=O)(=O)c1ccc(N)cc1 [Amprenavir] , respond with its cell viability.
Given back: 0.769

Asked: Given CC1=C(/C=C/C(C)=C/C=C/C(C)=C/C=C/C=C(C)/C=C/C=C(C)/C=C/C2=C(C)CCCC2(C)C)C(C)(C)CCC1 [Beta-Carotene] , respond with its cell viability.
Given back: 0.738

Asked: Given CC[C@]1(O)C[C@@H]2C[N@@](CCc3c([nH]c4ccccc34)[C@@](C(=O)OC)(c3cc4c(cc3OC)N(C)[C@H]3[C@@](O)(C(=O)OC)[C@H](OC(C)=O)[C@]5(CC)C=CCN6CC[C@]43[C@@H]65)C2)C1.O=S(=O)(O)O [Vinblastine sulfate] , respond with its cell viability.
Given back: 0.428

Asked: Given CC[C@H](Nc1ncnc2[nH]cnc12)c1nc2cccc(F)c2c(=O)n1-c1ccccc1 [Idelalisib] , respond with its cell viability.
Given back: 0.978

Asked: Given NC(=O)N1CCC(CC(=O)N2CCC([C@H]3c4ncc(Br)cc4CCc4cc(Cl)cc(Br)c43)CC2)CC1 [Lonafarnib] , respond with its cell viability.
Given back: 0.726

Asked: Given COc1cc2c(cc1O)CC[C@@H]1[C@@H]2CC[C@]2(C)[C@@H](O)CC[C@@H]12 [2-Methoxyestradiol] , respond with its cell viability.
Given back: 0.961
